This section presents IC50 values reported for Ephrin type-B receptor 4 (Homo sapiens, UniProt P54760) in the literature.

COc1ccc(Nc2ncnc(-n3c(N)nc4ccccc43)n2)cc1OC ... > 12.4 µM
COc1ccc(Nc2ncnc(N(CC(=O)OC(C)(C)C)c3ccc4c(c3)OCO4)n2)cc1OC ... > 9.35 µM
COc1cc2c(Nc3cc(Cl)c(Cl)cc3F)ncnc2cc1O[C@H]1CO[C@H]2[C@@H]1OC[C@@H]2OC ... < 0.05 µM

Assay Ephrin type-B receptor 4 (Homo sapiens, UniProt P54760), sample `COc1ccc(Nc2ncnc(-n3c(N)nc4ccccc43)n2)cc1O` , IC50 read: 6.87 to 10 µM

Assay Ephrin type-B receptor 4 (Homo sapiens, UniProt P54760), sample `COc1cc(Nc2ncnc(-n3c(Nc4ccc5[nH]ccc5c4)nc4ccccc43)n2)cc(OC)c1OC` , IC50 read: 6.88 to 8.85 µM

Assay Ephrin type-B receptor 4 (Homo sapiens, UniProt P54760), sample `Oc1ccc(/C=C/c2cc(-c3ccc4ccccc4c3)[nH]n2)cc1` , IC50 read: > 5 µM

Assay Ephrin type-B receptor 4 (Homo sapiens, UniProt P54760), sample `COc1cc(Nc2ncnc(Nc3ccncc3)n2)cc(OC)c1OC` , IC50 read: > 12.7 µM

Assay Ephrin type-B receptor 4 (Homo sapiens, UniProt P54760), sample `COc1cc2c(Nc3cccc(Br)c3C)ncnc2cc1O[C@H]1CO[C@H]2[C@@H]1OC[C@@H]2OC` , IC50 read: < 0.05 µM

Assay Ephrin type-B receptor 4 (Homo sapiens, UniProt P54760), sample COCCN1CCOC(COc2cc3ncnc(Nc4ccc(Cl)c(Cl)c4)c3cc2OC)C1 (centres unmarked) , IC50 read: 0.05 to 1 µM

Assay Ephrin type-B receptor 4 (Homo sapiens, UniProt P54760), sample `CN1CCN(c2ccc3[nH]c(-c4cc(-c5ccc(NC(=O)Nc6ccc(F)cc6F)cc5)[nH]n4)nc3c2)CC1` , IC50 read: > 5 µM

Assay Ephrin type-B receptor 4 (Homo sapiens, UniProt P54760), sample `COc1cc2c(Nc3ccc(Cl)c(Cl)c3)ncnc2cc1OCc1ccc2nonc2c1` , IC50 read: < 0.05 µM

----------
This section presents IC50 values reported for Ephrin type-B receptor 4 (Homo sapiens, UniProt P54760) in the literature.

COc1cc2c(Nc3ccc(Cl)c(Cl)c3)ncnc2cc1OCc1nc(CN2CCCN(C)CC2)cs1 ... < 50 nM
COc1cc(Nc2ncnc(-n3c(NCc4ccccc4)nc4ccccc43)n2)cc(OC)c1OC ... < 827 nM
COc1cc(Nc2ncnc(N3CCc4cc([N+](=O)[O-])ccc43)n2)cc(OC)c1OC ... > 10600 nM
COc1cc(Nc2ncnc(Nc3nc4ccc(F)cc4s3)n2)cc(OC)c1OC ... 5600 to 8170 nM
COc1cc2c(Nc3ccc(Cl)c(Cl)c3)ncnc2cc1OCc1cc(C)on1 ... < 50 nM
COc1ccc(Sc2ncnc(Nc3cc(OC)c(OC)c(OC)c3)n2)cc1 ... 999 to 5990 nM
COc1cc2c(Nc3cccc(Br)c3)ncnc2cc1O[C@@H]1CO[C@@H]2[C@H]1OC[C@H]2F ... < 50 nM
CCCS(=O)(=O)Nc1ccc(F)c(C(=O)c2c[nH]c3ncc(OC)cc23)c1F ... ≤ 10000 nM

Summary for this molecule, `CCN(CC)c1ccc(-c2csc(COc3cc4ncnc(Nc5ccc(Cl)c(Cl)c5)c4cc3OC)n2)cc1` : IC50 is < 50 nM

Summary for this molecule, `COC(=O)c1ccc(Nc2ncnc(Nc3cc(-c4ccco4)n[nH]3)n2)cc1` : IC50 is 1060 to 6360 nM

Summary for this molecule, `Oc1ccc(/C=C/c2cc(-c3ccccc3F)[nH]n2)cc1` : IC50 is > 5000 nM

Summary for this molecule, `OCCCNc1cc(-c2ncnc(Nc3cccc(OC(F)(F)C(F)F)c3)n2)ccn1` : IC50 is > 10300 nM

----------
pIC50: −log10 of the molar value.
This section presents pIC50 values reported for Ephrin type-B receptor 4 (Homo sapiens, UniProt P54760) in the literature.

COc1cc(C)c(Nc2ncnc(Nc3cc(-c4ccco4)n[nH]3)n2)cc1OC ... 5.05 to 5.21

Assay Ephrin type-B receptor 4 (Homo sapiens, UniProt P54760), sample `COc1cc(Nc2ncnc(-n3ccc4cc(OCc5ccccc5)ccc43)n2)cc(OC)c1OC` , pIC50 read: < 5.03

Assay Ephrin type-B receptor 4 (Homo sapiens, UniProt P54760), sample COc1cc2c(Nc3ccc(Cl)c(Cl)c3)ncnc2cc1OCC1CN(C(=NC#N)N2CCCCC2)CCO1 (stereo in doubt) , pIC50 read: > 7.30

Assay Ephrin type-B receptor 4 (Homo sapiens, UniProt P54760), sample `COc1cc(Nc2ncnc(-n3c(=O)[nH]c4ccccc43)n2)cc(OC)c1OC` , pIC50 read: < 4.94

Assay Ephrin type-B receptor 4 (Homo sapiens, UniProt P54760), sample `COc1cc(Nc2ncnc(Nc3cnc4ccccc4c3)n2)cc(OC)c1OC` , pIC50 read: > 6.00

Assay Ephrin type-B receptor 4 (Homo sapiens, UniProt P54760), sample CCOC(=O)C(C)N1CCOC(COc2cc3ncnc(Nc4ccc(Cl)c(Cl)c4)c3cc2OC)C1 (stereo not shown) , pIC50 read: 4.70 to 6.00

Assay Ephrin type-B receptor 4 (Homo sapiens, UniProt P54760), sample `Oc1ccc(/C=C/c2cc(-c3cc4ccccc4o3)n[nH]2)cc1` , pIC50 read: < 5.30

----------
This section presents IC50 values reported for Ephrin type-B receptor 4 (Homo sapiens, UniProt P54760) in the literature.

Reference set, count: 5
CCOc1ccc(Nc2ncnc(Nc3ccc(C)c(O)c3)n2)cc1OCC ... > 11800 nM
COc1cc2c(Nc3ccc(Cl)c(Cl)c3)ncnc2cc1OCc1noc(C2CCN(C(=O)OC(C)(C)C)CC2)n1 ... < 50 nM
Cc1ccc(F)cc1NC(=O)Nc1ccc(-c2cc(-c3ccc(N4CCN(C)CC4)cc3)[nH]n2)cc1 ... > 5000 nM
COc1cc2c(Nc3ccc(Cl)c(Cl)c3)ncnc2cc1OCc1cc(Br)cc(Br)c1 ... 50 to 1000 nM
COc1cc2c(Nc3ccc(Cl)c(Cl)c3)ncnc2cc1OCC1CN(C)CCCO1 (stereo not shown) ... < 50 nM

Assay Ephrin type-B receptor 4 (Homo sapiens, UniProt P54760), sample `COc1cc(/C=C/c2cc(-c3ccccc3)[nH]n2)ccc1O` , IC50 read: > 5000 nM

Assay Ephrin type-B receptor 4 (Homo sapiens, UniProt P54760), sample `CN1CCN(c2ccc3[nH]c(-c4cc(-c5ccc(NC(=O)Nc6cccc(C(F)(F)F)c6)cc5)[nH]n4)nc3c2)CC1` , IC50 read: 500 to 5000 nM

----------
This section presents pIC50 values reported for UniProt P54760 in the literature.
pIC50: −log10 of the molar value.

COc1cc2c(Nc3ccc(Cl)c(Cl)c3)ncnc2cc1OCC1CN(CC2CC2)CCCO1 (centres unmarked) ... 6.00 to 7.30
CN1CCN(c2ccc3[nH]c(-c4cc(-c5ccc(NC(=O)Nc6ccc(F)cc6)cc5)[nH]n4)nc3c2)CC1 ... < 5.30

Summary for this compound, `CCN1CCN(c2noc(COc3cc4ncnc(Nc5ccc(Cl)c(Cl)c5)c4cc3OC)n2)CC1` : pIC50 is 6.00 to 7.30

Summary for this compound, `COc1cc(Nc2ncnc(-n3c(NC(C)=O)nc4ccccc43)n2)cc(OC)c1OC` : pIC50 is 5.09 to 5.26

Summary for this compound, `COc1cc(Nc2ncnc(Nc3nnc(-c4ccccc4)[nH]3)n2)cc(OC)c1OC` : pIC50 is < 4.97

----------
This section presents IC50 values reported for Ephrin type-B receptor 4 (Homo sapiens) in the literature.

COc1cc2c(Nc3ccc(Cl)c(Cl)c3)ncnc2cc1OCc1noc(-c2ccccc2)n1 ... < 0.05 µM
COc1cc(Nc2ncnc(-n3c(Nc4cccc(C)c4)nc4ccccc43)n2)cc(OC)c1OC ... > 9.31 µM
COc1cc2c(Nc3ccc(Cl)c(Cl)c3)ncnc2cc1OCc1nc(-c2ccc(O)c(C(N)=O)c2)cs1 ... 0.05 to 1 µM
COCCOc1ccc(Nc2ncnc(Nc3ccc(C)c(F)c3)n2)cc1OCCOC ... > 10.1 µM
CN1CCN(c2ccc3[nH]c(-c4cc(-c5ccc(NC(=O)Nc6ccc(Oc7ccccc7)cc6)cc5)[nH]n4)nc3c2)CC1 ... > 5 µM
CN1CCN(c2ccc3[nH]c(-c4cc(-c5ccc(NC(=O)Nc6cc(C(F)(F)F)cc(C(F)(F)F)c6)cc5)[nH]n4)nc3c2)CC1 ... 0.5 to 5 µM
COc1cc(Nc2ncnc(-c3c(O)[nH]c4ccccc34)n2)cc(OC)c1OC ... > 11.4 µM
COc1cccc(NC(=O)Nc2ccc(-c3cc(-c4nc5cc(N6CCN(C)CC6)ccc5[nH]4)n[nH]3)cc2)c1 ... > 5 µM

Summary for this compound, `COc1cc(Nc2ncnc(N(c3ccccc3)c3nc4ccccc4[nH]3)n2)cc(OC)c1OC` : IC50 is 0.852 to 5.11 µM

Summary for this compound, `COc1ccc(Oc2ncnc(Nc3cc(OC)c(OC)c(OC)c3)n2)cc1` : IC50 is > 11.7 µM

Summary for this compound, `COc1cc(Nc2ncnc(-c3ccsc3)n2)cc(OC)c1OC` : IC50 is > 13.1 µM

Summary for this compound, `COc1ccc2c(ccn2-c2ncnc(Nc3cc(OC)c(OC)c(OC)c3)n2)c1` : IC50 is > 11 µM

Summary for this compound, `COc1cc(Nc2ncnc(N3CCc4ccccc43)n2)cc(OC)c1OC` : IC50 is 6.33 to 9.22 µM

Summary for this compound, `Oc1ccc(Nc2ncnc(Nc3ccc(OCc4ccccc4)cc3)n2)cc1` : IC50 is 1.04 to 6.23 µM

Summary for this compound, `COC(=O)c1cccc(Nc2ncnc(Nc3cc(-c4ccco4)n[nH]3)n2)c1` : IC50 is 1.06 to 6.36 µM
